The next entries give measured Ki for Histamine H2 receptor (Homo sapiens, UniProt P25021).
Hi! Could you send only the number? It should be in nM, unit omitted.

Task item: I would be grateful if you could share the reported Ki for "Cc1cc(/C=C/C=C/c2ccc(N(C)C)cc2)cc(C)[n+]1CCCCNc1c(NCCCOc2cccc(CN3CCCCC3)c2)c(=O)c1=O.O=C(O)C(F)(F)F.O=C([O-])C(F)(F)F" .
Reply: 17.8

Task item: Consider the molecule "C[N+]1=C(/C=C/C=C/C=C2\N(CCCCCC(=O)NCCCCNc3c(NCCCOc4cccc(CN5CCCCC5)c4)c(=O)c3=O)c3ccccc3C2(C)C)C(C)(C)c2ccccc21.O=C(O)C(F)(F)F.O=C([O-])C(F)(F)F" and give its measured Ki.
Reply: 269

Task item: Item "CC1(C)C(/C=C/C=C/C=C2\N(CCCCCC(=O)NCCCCNc3c(NCCCOc4cccc(CN5CCCCC5)c4)c(=O)c3=O)c3cc(S(=O)(=O)O)ccc3C2(C)C)=[N+](CCCCS(=O)(=O)[O-])c2ccccc21" has what recorded Ki?
Reply: 2040

Task item: GET /values?readout=Ki&item= "CC1(C)C(/C=C/C=C/C=C2\N(CCCCCC(=O)NCCCCNc3c(NCCCOc4cccc(CN5CCCCC5)c4)c(=O)c3=O)c3ccccc3C2(C)C)=[N+](CCCCS(=O)(=O)[O-])c2ccccc21.O=C(O)C(F)(F)F.O=C(O)C(F)(F)F"
Reply: 324

Task item: Name the recorded Ki for "C[N+]1=C(/C=C/C=C/C=C2\N(CCCCCC(=O)NCCCCCCNc3c(NCCCOc4cccc(CN5CCCCC5)c4)c(=O)c3=O)c3ccccc3C2(C)C)C(C)(C)c2ccccc21.O=C(O)C(F)(F)F.O=C([O-])C(F)(F)F" .
Reply: 21.4

Task item: Please report the recorded Ki for "Cc1cc(/C=C/C=C/c2ccc(N(C)C)cc2)cc(C)[n+]1CCCCCCNc1c(NCCCOc2cccc(CN3CCCCC3)c2)c(=O)c1=O.O=C(O)C(F)(F)F.O=C([O-])C(F)(F)F" .
Reply: 19.5

----------
Molecular target: UniProtKB P25021
Assay: Binding affinity to human H2R expressed in human HEK293T cells incubated for 60 mins by automated cell imaging analysis
Type: cell-based, HEK-293T
Kindly state Kd for each of the entries shown.
Note: a bare number is incomplete; add the unit.

Task item: What measured Kd is associated with "CC1(C)C(/C=C/C=C/C=C2\N(CCCCCC(=O)NCCCCNc3c(NCCCOc4cccc(CN5CCCCC5)c4)c(=O)c3=O)c3ccccc3C2(C)C)=[N+](CCCCS(=O)(=O)[O-])c2ccccc21.O=C(O)C(F)(F)F.O=C(O)C(F)(F)F" on UniProtKB P25021?
Reply: 170 nM

Task item: Kindly state the measured Kd obtained for "C[N+]1=C(/C=C/C=C/C=C2\N(CCCCCC(=O)NCCCCCCNc3c(NCCCOc4cccc(CN5CCCCC5)c4)c(=O)c3=O)c3ccccc3C2(C)C)C(C)(C)c2ccccc21.O=C(O)C(F)(F)F.O=C([O-])C(F)(F)F" with UniProtKB P25021.
Reply: 15.1 nM

----------
Molecular target: UniProt P25021
Assay: Binding affinity to human H2R expressed in human HEK293T cells incubated for 90 mins by flowcytometry
Type: cell-based, HEK-293T
Could you please report measured Kd for the items listed next?
Supply the numeric figure in µM, leaving out any unit text.

Task item: Can you share its Kd? I mean this compound: "Cc1cc(/C=C/C=C/c2ccc(N(C)C)cc2)cc(C)[n+]1CCCCCCCNc1c(NCCCOc2cccc(CN3CCCCC3)c2)c(=O)c1=O.O=C(O)C(F)(F)F.O=C([O-])C(F)(F)F"
Reply: 0.0186

Task item: Recorded Kd for "CC1(C)C(/C=C/C=C/C=C2\N(CCCCCC(=O)NCCCCCCNc3c(NCCCOc4cccc(CN5CCCCC5)c4)c(=O)c3=O)c3ccccc3C2(C)C)=[N+](CCCCS(=O)(=O)[O-])c2ccccc21.O=C(O)C(F)(F)F.O=C(O)C(F)(F)F" , please?
Reply: 0.0479

Task item: Need Kd, item "C[N+]1=C(/C=C/C=C/C=C2\N(CCCCCC(=O)NCCCCCCNc3c(NCCCOc4cccc(CN5CCCCC5)c4)c(=O)c3=O)c3ccccc3C2(C)C)C(C)(C)c2ccccc21.O=C(O)C(F)(F)F.O=C([O-])C(F)(F)F"
Reply: 0.0129

Task item: Query (compound): "C[N+]1=C(/C=C/C=C/C=C2\N(CCCCCC(=O)NCCCCNc3c(NCCCOc4cccc(CN5CCCCC5)c4)c(=O)c3=O)c3ccccc3C2(C)C)C(C)(C)c2ccccc21.O=C(O)C(F)(F)F.O=C([O-])C(F)(F)F" ; field requested: Kd
Reply: 0.288
